- Study System: benzodiazepine receptors
- Assay Method Text: Inhibition of the binding to benzodiazepine receptors (rat brains)
- Experimental Context: rat brains incubated 1 h 30 at 4° C.; 3H-RO-15-4788 and 3H-RO-5-4864 as tracers; Table I; read-out: BDZ receptors (inhibition of the binding to benzodiazepine receptors)
Readout Type: pIC50
Give bare numbers, as −log10 of the molar value.

- Compound: "COc1ccc(NC(=S)N2CCc3c(sc4c3C(c3ccccc3Cl)=NCc3nnc(C)n3-4)C2)cc1 [Example 7]"
  pIC50: 5.70
- Compound: "Cc1nnc2n1-c1sc3c(c1C(c1ccccc1Cl)=NC2)CCN(C(=S)Nc1ccc(C(C)(C)C)cc1)C3 [Example 11]"
  pIC50: 5.92
- Compound: "Cc1nnc2n1-c1sc3c(c1C(c1ccccc1Cl)=NC2)CCN(C(=O)NC(C)(C)C)C3 [Example 3]"
  pIC50: 6.37

Record pIC50 for all entries; do not skip any.
1. Cc1nnc2n1-c1sc3c(c1C(c1ccccc1Cl)=NC2)CCN(C(=S)Nc1ccccc1C(F)(F)F)C3 [Example 12]
2. Cc1nnc2n1-c1sc3c(c1C(c1ccccc1Cl)=NC2)CCN(C(=S)NC(C)Cc1ccccc1)C3 (stereo not shown) [Example 19]

Return:
5.46
6.44

Record pIC50 for all entries; do not skip any.
1. Cc1nnc2n1-c1sc3c(c1C(c1ccccc1Cl)=NC2)CCN(C(=S)NC1CCCCC1)C3 [Example 26]
2. COc1ccc(NC(=O)N2CCc3c(sc4c3C(c3ccccc3Cl)=NCc3nnc(C)n3-4)C2)cc1 [Example 6]

Return:
5.39
4.11
